Values compiled from paper PMC10786891.

Parameter Kd: see the listing below.
- MEASURED_TARGET: T1, EsCas13d, nuclease-dead (Eubacterium siraeum, UniProt B0MS50, R295A;H300A;R849A;H854A)
- T1 sequence: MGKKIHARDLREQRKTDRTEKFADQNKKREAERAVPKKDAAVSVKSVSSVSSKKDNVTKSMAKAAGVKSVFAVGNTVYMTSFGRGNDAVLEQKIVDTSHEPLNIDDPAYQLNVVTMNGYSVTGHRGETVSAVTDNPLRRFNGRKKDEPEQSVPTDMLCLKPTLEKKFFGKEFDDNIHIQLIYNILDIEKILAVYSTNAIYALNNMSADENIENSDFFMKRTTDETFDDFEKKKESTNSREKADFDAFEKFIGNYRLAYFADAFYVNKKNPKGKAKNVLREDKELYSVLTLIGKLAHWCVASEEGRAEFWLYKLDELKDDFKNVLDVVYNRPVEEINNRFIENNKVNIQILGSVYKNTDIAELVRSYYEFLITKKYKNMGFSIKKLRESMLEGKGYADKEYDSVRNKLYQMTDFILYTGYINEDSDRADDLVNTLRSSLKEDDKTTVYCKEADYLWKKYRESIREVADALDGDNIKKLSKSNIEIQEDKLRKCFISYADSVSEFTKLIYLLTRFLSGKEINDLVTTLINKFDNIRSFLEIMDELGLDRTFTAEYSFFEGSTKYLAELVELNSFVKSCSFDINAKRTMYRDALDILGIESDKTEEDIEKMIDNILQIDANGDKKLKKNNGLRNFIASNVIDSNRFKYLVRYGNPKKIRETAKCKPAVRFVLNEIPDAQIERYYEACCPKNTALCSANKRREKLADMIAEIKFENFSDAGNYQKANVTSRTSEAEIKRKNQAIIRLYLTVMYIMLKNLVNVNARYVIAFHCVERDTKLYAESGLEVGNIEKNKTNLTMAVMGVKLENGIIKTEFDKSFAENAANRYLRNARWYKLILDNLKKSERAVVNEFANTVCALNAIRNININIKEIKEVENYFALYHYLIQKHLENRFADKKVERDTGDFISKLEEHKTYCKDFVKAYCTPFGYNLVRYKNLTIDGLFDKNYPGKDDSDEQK
- ASSAY_EXPLANATION: crRNA (strand 1, pre-loaded); Mg2+; 40 mM Tris-HCl pH 7.5, 150 mM NaCl, 6 mM MgCl2, 1 mM DTT, 0.1% Tween-20, 0.2 mg/ml BSA; 25 C; 10 min per concentration, then washed
- CONDITION_NOTES: tags: His6-TwinStrep-SUMO cleaved; N-terminal SNAP kept (SNAP-Surface 488); label: 3' end held by stalled T7 RNA polymerase
Your answer should be a plain number; it is taken to be in nM.

Reported Kd ( target 1 A18C,U19A (mixed) RNA 1: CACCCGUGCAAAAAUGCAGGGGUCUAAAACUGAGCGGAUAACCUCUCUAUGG RNA 2: GGGAAUGGAUCCACAUCUACGAAUUCGUACCAACGAGAGGUUAUCCGCUCACCGAGAUCGGAAGAGCACACGU ) = 49

Reported Kd ( target 1 MT 5'PFS GUC 3'PFS AAC (mixed) RNA 1: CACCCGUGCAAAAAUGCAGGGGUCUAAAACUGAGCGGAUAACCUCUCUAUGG RNA 2: GGGAAUGGAUCCACAUCUACGAAUUCGUCCCAUAGAGAGGUUAUCCGCUCAAACAGAUCGGAAGAGCACACGU ) = 36.5

Reported Kd ( target 1 G13U (mixed) RNA 1: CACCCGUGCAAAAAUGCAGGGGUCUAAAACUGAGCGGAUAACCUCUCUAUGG RNA 2: GGGAAUGGAUCCACAUCUACGAAUUCGUACCAUAGAGAUGUUAUCCGCUCACCGAGAUCGGAAGAGCACACGU ) = 34

Reported Kd ( target 1 insC 3' of 20,insC 3' of 14 (mixed) RNA 1: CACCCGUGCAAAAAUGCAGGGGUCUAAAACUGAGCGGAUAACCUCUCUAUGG RNA 2: GGGAAUGGAUCCACAUCUACGAAUUCGUACCACUAGAGACGGUUAUCCGCUCACCGAGAUCGGAAGAGCACACGU ) = 3.1

Reported Kd ( target 1 C6A,U11G (mixed) RNA 1: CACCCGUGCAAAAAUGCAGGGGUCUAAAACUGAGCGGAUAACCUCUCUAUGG RNA 2: GGGAAUGGAUCCACAUCUACGAAUUCGUACCAUAGAGAGGGUAUCAGCUCACCGAGAUCGGAAGAGCACACGU ) = 10.8

Reported Kd ( target 1 C7A,A16U (mixed) RNA 1: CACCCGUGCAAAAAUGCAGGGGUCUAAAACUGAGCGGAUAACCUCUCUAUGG RNA 2: GGGAAUGGAUCCACAUCUACGAAUUCGUACCAUAGUGAGGUUAUACGCUCACCGAGAUCGGAAGAGCACACGU ) = 42.2
